System: U2OS
Test: Incucyte cell viability with U2OS; also: unitless GR value; below 1 slowed growth and below 0 cell loss
Assay type: toxicity, cell-based
Conditions: human, 12 h, 10 µM, compound concentration 10 uM, replicate number 2
Each entry gets Criterion not met if its Growth Rate stays under 0.8, and Criterion met if its Growth Rate is 0.8 or above.

CC(Oc1cc(-c2cnn(C3CCNCC3)c2)cnc1N)c1c(Cl)ccc(F)c1Cl (centres undefined) : Criterion not met
COc1cccc(-c2c(C)c(Cc3c(F)cccc3C(F)(F)F)c3n(c2=O)[C@@H]([C@@H](N)c2ccccc2)CS3)c1F : Criterion not met
CCC(C(=O)Nc1ccc(-c2cc3ccccc3s2)c(C(N)=O)c1)c1nccs1 (centres undefined) : Criterion not met
Cn1ccc(Cn2cnc(-c3ccc(F)cc3)c2-c2ccnc3[nH]ccc23)n1 : Criterion met

Please indicate if the recorded Growth Rate for [2H]C([2H])([2H])NC(=O)c1nnc(NC(=O)C2CC2)cc1Nc1cccc(-c2ncn(C)n2)c1OC [DEUCRAVACITINIB] meets or exceeds 0.8. Criterion not met

Dear colleague, could you confirm whether COc1ccc(CSc2nnc(-c3ccc4ncsc4c3)o2)cc1C(F)(F)F has Growth Rate at or above 0.8? Criterion met

Check the entry Clc1ccc(-c2nc3sccn3c2/C=N/OCc2ccc(Cl)c(Cl)c2)cc1 : does Growth Rate equal or exceed 0.8? Criterion met
